# IC50 listing for each entry below
# System tested: Recombinant STAT6 protein (STAT6 (W123-T658)) (Homo sapiens, UniProt P42226)
# Construct: Recombinant STAT6 protein (STAT6 (W123-T658))
# Sequence (P42226 123-658): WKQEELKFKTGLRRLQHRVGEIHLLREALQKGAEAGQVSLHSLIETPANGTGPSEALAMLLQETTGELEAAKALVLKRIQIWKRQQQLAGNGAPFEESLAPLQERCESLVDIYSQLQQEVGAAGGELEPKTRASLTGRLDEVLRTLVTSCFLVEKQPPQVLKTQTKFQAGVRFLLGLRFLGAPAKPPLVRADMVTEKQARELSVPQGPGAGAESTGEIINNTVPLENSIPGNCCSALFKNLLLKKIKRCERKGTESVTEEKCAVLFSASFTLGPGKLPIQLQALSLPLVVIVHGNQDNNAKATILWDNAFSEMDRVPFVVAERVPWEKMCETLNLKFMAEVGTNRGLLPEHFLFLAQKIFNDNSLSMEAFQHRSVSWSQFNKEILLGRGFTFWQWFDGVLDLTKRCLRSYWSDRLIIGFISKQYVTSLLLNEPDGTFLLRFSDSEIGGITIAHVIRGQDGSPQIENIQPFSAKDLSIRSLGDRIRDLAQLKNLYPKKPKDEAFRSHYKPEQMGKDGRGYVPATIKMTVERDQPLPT
# Protocol details: STAT6 Fluorescence Polarization (FP) Assay
# Type: binding
# Condition info: STAT6 (W123-T658) 250 nM, probe 5-FAM-Ap[…]-NH2 2 nM, 45-minute incubation; read-out: STAT6 (FP assay IC50 class)
Quantity: IC50

1) Cc1nccc(F)c1C1CN(C(=O)[C@@H]2CC[C@@H]3CCC[C@H](NC(=O)c4cc5cc(CP(=O)(O)O)ccc5s4)C(=O)N32)C1 :: 3 to 30 µM
2) C[C@H]1C[C@H]2CC[C@@H](C(=O)N3CC(c4cncnc4N4CCC4)C3)N2C(=O)[C@@H](NC(=O)c2cc3cc([C@@H](F)P(=O)(O)O)ccc3s2)C1 (single isomer, unassigned) :: 3 to 30 µM
3) O=C(N[C@H]1CCCC[C@H]2CC[C@@H](C(=O)N3CC(c4ccccc4)CC34CC4)N2C1=O)c1ccc2ccc(C(F)(F)P(=O)(O)O)cc2c1 (some centres unmarked) :: ≤ 0.3 µM
4) CCC[C@@H]1CC[C@H](NC(=O)c2cc3cc(C(F)P(=O)(O)O)ccc3s2)C(=O)N2[C@H](CC[C@H]2C(=O)N2C[C@@H](C#N)[C@H](c3ccccc3)C2)C1 (single isomer, unassigned) :: ≤ 0.3 µM
5) O=C(N[C@H]1CCCCC[C@H]2CC[C@@H](C(=O)N3CC(C(=O)N4CCOCC4)C3)N2C1=O)c1cc2cc(C(F)(F)P(=O)(O)O)ccc2s1 :: > 30 µM

====

# System tested: pY705-STAT3 in PBMC (Homo sapiens, UniProt P40763)
# Construct: Cryopreserved Peripheral Blood Mononuclear Cells (PBMC) are from AllCells; host or cells: cryopreserved PBMC
# Sequence (P40763 whole entry): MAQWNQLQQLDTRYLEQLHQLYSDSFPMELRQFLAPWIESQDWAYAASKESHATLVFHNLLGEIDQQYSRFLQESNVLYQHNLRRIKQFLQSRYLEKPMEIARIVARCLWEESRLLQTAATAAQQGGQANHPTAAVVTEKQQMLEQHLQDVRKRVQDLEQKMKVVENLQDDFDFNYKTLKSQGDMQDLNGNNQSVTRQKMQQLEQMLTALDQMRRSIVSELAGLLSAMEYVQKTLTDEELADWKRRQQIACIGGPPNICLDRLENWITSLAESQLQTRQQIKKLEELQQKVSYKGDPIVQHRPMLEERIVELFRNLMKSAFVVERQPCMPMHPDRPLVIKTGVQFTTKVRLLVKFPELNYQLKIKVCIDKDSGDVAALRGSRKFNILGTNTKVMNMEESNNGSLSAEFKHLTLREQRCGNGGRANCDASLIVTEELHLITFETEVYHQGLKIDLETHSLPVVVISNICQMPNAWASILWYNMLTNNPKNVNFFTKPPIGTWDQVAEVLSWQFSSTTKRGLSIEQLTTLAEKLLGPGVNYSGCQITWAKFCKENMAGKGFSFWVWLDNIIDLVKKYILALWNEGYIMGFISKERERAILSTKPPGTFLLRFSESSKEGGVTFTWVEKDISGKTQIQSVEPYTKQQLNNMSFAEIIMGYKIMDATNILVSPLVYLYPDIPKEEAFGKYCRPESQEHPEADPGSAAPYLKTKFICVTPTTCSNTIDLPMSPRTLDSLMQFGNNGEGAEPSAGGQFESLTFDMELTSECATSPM
# Protocol details: MSD-pSTAT-PBMC Assay (pSTAT3, IL-6 stimulated)
# Assay type: cell-based
# Condition info: PBMC, compound 3 hrs, then 10 ng/mL IL-6 for 10 min; Table 115; read-out: STAT3
Quantity: IC50

1) CCCOC(=O)[C@H](C)NP(=O)(Cc1ccc2ccc(C(=O)N[C@H]3CCCC[C@H]4CC[C@@H](C(=O)N5CC(c6ccccc6)CC56CC6)N4C3=O)cc2c1)Oc1ccccc1 (stereo partly drawn) [Compound 421] :: > 3 µM
2) COCCC(=O)SCCOP(=O)(OCCSC(=O)CCOC)C(F)(F)c1ccc2sc(C(=O)N[C@H]3CCCC[C@H]4CC[C@@H](C(=O)N5C[C@@H](C#N)[C@H](c6cc[nH]c(=O)c6)C5)N4C3=O)cc2c1 (single isomer, unassigned) [Compound 1083] :: 1 to 3 µM
3) CC(C)CC(=O)SCCOP(=O)(OCCSC(=O)CC(C)C)C(F)(F)c1ccc2ccc(C(=O)N[C@H]3CCCC[C@H]4CC[C@@H](C(=O)N5CC(c6ccccc6)CC56CC6)N4C3=O)cc2c1 (stereo partly drawn) [Compound 1101] :: > 3 µM
4) CC(C)CC(=O)SCCOP(=O)(OCOC(=O)OC1COC1)C(F)(F)c1ccc2sc(C(=O)N[C@H]3CCC[C@H]4CC[C@@H](C(=O)N5CC(c6ncccn6)C5)N4C3=O)cc2c1 (stereo partly drawn) [Compound 1095] :: < 0.1 µM
5) CCCOC(=O)[C@H](C)N[P@](=O)(Oc1ccccc1)[C@@H](F)c1ccc2sc(C(=O)N[C@H]3C[C@@H](C)C[C@H]4CC[C@@H](C(=O)N5CC(c6cnccc6OC(C)C)C5)N4C3=O)cc2c1 (single isomer, unassigned) [Compound 1033] :: < 0.1 µM
6) COc1ccncc1C1CN(C(=O)[C@@H]2CC[C@@H]3CCC[C@H](NC(=O)c4cc5cc([C@H](F)[P@@](=O)(N[C@@H](C)C(=O)OC(C)C)Oc6ccccc6)ccc5s4)C(=O)N32)C1 (single isomer, unassigned) [Compound 1052] :: 0.1 to 1 µM
7) C[C@H](NP(=O)(Oc1ccccc1)C(F)c1ccc2sc(C(=O)N[C@H]3CCC[C@H]4CC[C@@H](C(=O)N5CC(c6cnccc6F)C5)N4C3=O)cc2c1)C(=O)OCCC(F)(F)F (stereo partly drawn) [Compound 983] :: < 0.1 µM
8) CCCCOC(=O)[C@H](C)NP(=O)(Oc1ccccc1)C(F)(F)c1ccc2sc(C(=O)N[C@H]3CCC[C@H]4CC[C@@H](C(=O)N5CC(c6cccnc6)C5)N4C3=O)cc2c1 (stereo partly drawn) [Compound 254] :: 0.1 to 1 µM
9) CCCOC(=O)[C@H](C)NP(=O)(Oc1ccccc1)[C@@H](F)c1ccc2sc(C(=O)N[C@H]3CCCC[C@H]4CC[C@@H](C(=O)N5C[C@H](c6cccc(F)c6)C(C#N)C56CC6)N4C3=O)cc2c1 (relative stereo) [Compound 337] :: > 3 µM
